Origin of the recorded values: patent US20240342186A1

- Tested system: cGAS (Homo sapiens (Human))
- Assay summary: Human cGAS enzyme assay (hcGAS IC50, in vitro), cGAMP formation by RapidFire MS
- Format: biochemical
- Recorded conditions: biochemical (in vitro) cGAS inhibition
Observed property: IC50 (nM)
Write the number in nM without appending the unit.

Compound	Tested system	Reported value
C[C@H]1COCCN1c1cc(-c2cnn(C)c2)cnc1O[C@H]1C[C@@H](C(=O)O)N(c2nc(C(F)(F)F)nc3c2oc2ccccc23)C1	cGAS (Homo sapiens (Human))	9
C#Cc1cnc(O[C@H]2C[C@@H](C(=O)O)N(c3nc(CF)nc4c3oc3ccccc34)C2)c(N2CCOC3(COC3)[C@@H]2C)c1	cGAS (Homo sapiens (Human))	1
C[C@H]1COC[C@H](C)N1c1cc(Br)cnc1O[C@H]1C[C@@H](C(=O)O)N(c2nc(C(F)F)nc3c2oc2ccccc23)C1	cGAS (Homo sapiens (Human))	10
CC1(C#N)CN(c2cc(Cl)cnc2O[C@H]2C[C@@H](C(=O)O)N(c3nc(C(F)F)nc4c3oc3ccccc34)C2)CCO1 (stereo partly drawn)	cGAS (Homo sapiens (Human))	4
C#Cc1cnc(O[C@H]2C[C@@H](C(=O)O)N(c3nc(C(F)(F)F)nc4c3oc3ccccc34)C2)c(N2CCOCC2)c1	cGAS (Homo sapiens (Human))	7

Here is the next item to consider.
Consider the compound `C[C@@H]1N(c2cc(Br)cnc2O[C@H]2C[C@@H](C(=O)O)N(c3nc(C(F)(F)F)nc4c3oc3ccccc34)C2)CCOC12CC2` and give its recorded IC50.
3

----------
- Tested system: cGAS (Homo sapiens (Human), UniProt Q8N884)
- Sequence (Q8N884 whole entry): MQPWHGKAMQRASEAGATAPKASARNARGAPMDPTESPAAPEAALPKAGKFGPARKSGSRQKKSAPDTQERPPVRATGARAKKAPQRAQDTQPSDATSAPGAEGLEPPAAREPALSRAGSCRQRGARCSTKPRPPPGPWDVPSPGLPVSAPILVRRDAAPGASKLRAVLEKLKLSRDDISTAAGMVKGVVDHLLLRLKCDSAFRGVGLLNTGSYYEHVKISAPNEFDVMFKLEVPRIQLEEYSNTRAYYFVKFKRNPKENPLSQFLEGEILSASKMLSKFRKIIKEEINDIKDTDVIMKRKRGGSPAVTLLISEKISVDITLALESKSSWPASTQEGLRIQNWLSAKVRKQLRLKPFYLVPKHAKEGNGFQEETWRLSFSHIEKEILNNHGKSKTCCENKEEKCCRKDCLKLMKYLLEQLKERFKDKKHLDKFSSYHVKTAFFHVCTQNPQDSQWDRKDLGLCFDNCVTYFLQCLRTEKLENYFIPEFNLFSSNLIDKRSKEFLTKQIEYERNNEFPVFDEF
- Assay summary: Human cGAS enzyme assay (hcGAS IC50, in vitro), cGAMP formation by RapidFire MS
- Assay type: biochemical
- Recorded conditions: biochemical (in vitro) cGAS inhibition
Observed property: IC50 (nM)
Just the number in nM, nothing appended.

Quote IC50 reported for C[C@@H]1N(c2cc(-c3cccc(CO)c3)cnc2O[C@H]2C[C@@H](C(=O)O)N(c3nc(C(F)F)nc4c3oc3ccccc34)C2)CCOC12COC2 [Example 3.11] please.
4

In one line, give reported IC50 of the entry C#Cc1cnc(O[C@H]2C[C@@H](C(=O)O)N(c3nc(C(F)(F)F)nc4c3oc3cc(CC)ccc34)C2)c(N2CCOC3(COC3)[C@@H]2C)c1 [Example 2.09] .
6

----------
- Test system: cGAMP-stimulated THP1-Dual cells (pathway directly downstream of cGAS)
- Assay summary: cGAMP stimulated counter cell assay: inhibition of IFN induction in cGAMP-stimulated THP1 cells (THP1(cGAMP) IC50)
- Type: cell-based, human
- Recorded conditions: Homo sapiens, THP1-Dual, read-out: THP1(cGAMP) IC50
Observed property: IC50 (µM)
Record the value in µM, omitting the unit from your answer.

Give the value of IC50 reported for the following: `C[C@@H]1N(c2cc(-c3ccnc(N(C)C)c3)cnc2O[C@H]2C[C@@H](C(=O)O)N(c3nc(C(F)F)nc4c3oc3ccccc34)C2)CCOC12COC2`
6.68

----------
- Tested system: cGAS (Homo sapiens (Human))
- Assay summary: Human cGAS enzyme assay (hcGAS IC50, in vitro), cGAMP formation by RapidFire MS
- Type: biochemical
- Recorded conditions: biochemical (in vitro), human cGAS, 45 bp dsDNA, GTP/ATP
pIC50: −log10 of the molar value.
Observed property: pIC50

Past entries and their recorded results:
Chemical smiles	Tested system	Observed property	Reported value
COC(=O)[C@@H]1C[C@H](Oc2ncc(-c3cccnc3OC)cc2N2CCOC3(COC3)[C@@H]2C)CN1c1nc(C(F)(F)F)nc2c1oc1ccccc12	cGAS (Homo sapiens (Human))	pIC50	< 5.00
COC(=O)[C@@H]1C[C@H](Oc2ncc(Br)cc2N2CCOC3(COC3)[C@@H]2C)CN1c1nc(C(F)(F)F)nc2c1oc1ccccc12	cGAS (Homo sapiens (Human))	pIC50	< 5.00

--- query ---
Find the measured pIC50 of `COC(=O)[C@@H]1C[C@H](Oc2ncccc2N2CCOC3(COC3)[C@@H]2C)CN1c1nc(C(F)F)nc2c1oc1ccccc12` and report it.
< 5.00

----------
- Tested system: cGAS (Homo sapiens (Human))
- Assay summary: Human cGAS enzyme assay (hcGAS IC50, in vitro), cGAMP formation by RapidFire MS
- Assay type: biochemical
- Recorded conditions: biochemical (in vitro) cGAS inhibition
Observed property: pIC50
When answering, recall that pIC50 equals minus log10 of the concentration in mol/L, and write that number alone.

Compound	pIC50
C[C@@H]1N(c2cc(-c3cn(C)cn3)cnc2O[C@H]2C[C@@H](C(=O)O)N(c3nc(C(F)(F)F)nc4c3oc3ccccc34)C2)CCOC12COC2 [Example 3.20]	8.52
C#Cc1cnc(O[C@H]2C[C@@H](C(=O)O)N(c3nc(C(C)(F)F)nc4c3oc3ccccc34)C2)c(N2CCOC3(COC3)[C@H]2C)c1 [Example 1.15]	7.12
C[C@H]1COCCN1c1cc(-c2ccncc2)cnc1O[C@H]1C[C@@H](C(=O)O)N(c2nc(C(F)(F)F)nc3c2oc2ccccc23)C1 [Example 3.01]	8.05
C[C@@H]1N(c2cc(-c3ccc(OC4CCOCC4)nc3)cnc2O[C@H]2C[C@@H](C(=O)O)N(c3nc(C(F)(F)F)nc4c3oc3ccccc34)C2)CCOC12COC2 [Example 3.29]	7.18
C[C@H]1COCCN1c1cc(Cl)cnc1O[C@H]1C[C@@H](C(=O)O)N(c2nc(C(F)F)nc3c2oc2ccccc23)C1 [Example 1.27]	8.40

Please give measured pIC50 of the following entry: C#Cc1cnc(O[C@H]2C[C@@H](C(=O)O)N(c3nc(C(F)F)nc4c3oc3ccccc34)C2)c(N2CCOCC2)c1 [Example 2.01]
8.10

Supply reported pIC50 belonging to this compound: C#Cc1cnc(O[C@H]2C[C@@H](C(=O)O)N(c3nc(C(F)(F)F)nc4c3oc3ccccc34)C2)c(N2CCOC3(COC3)[C@@H]2C)c1 [Example 1.12]
8.52

Let me know recorded pIC50 for CNc1cccc(-c2cnc(O[C@H]3C[C@@H](C(=O)O)N(c4nc(C(F)(F)F)nc5c4oc4ccccc45)C3)c(N3CCOC4(COC4)[C@@H]3C)c2)n1 [Example 7.03] , thanks.
7.68

Let me know recorded pIC50 for CNCc1cccc(-c2cnc(O[C@H]3C[C@@H](C(=O)O)N(c4nc(C(F)(F)F)nc5c4oc4ccccc45)C3)c(N3CCOC4(COC4)[C@@H]3C)c2)c1 [Example 3.22] , thanks.
7.80

Respond only with pIC50 recorded for CNc1cc(-c2cnc(O[C@H]3C[C@@H](C(=O)O)N(c4nc(C(F)(F)F)nc5c4oc4ccccc45)C3)c(N3CCOC4(COC4)[C@@H]3C)c2)ccn1 [Example 3.09]
8.05

Let me know recorded pIC50 for C[C@@H]1N(c2cc(-n3cccn3)cnc2O[C@H]2C[C@@H](C(=O)O)N(c3nc(C(F)(F)F)nc4c3oc3ccccc34)C2)CCOC12COC2 [Example 10.01] , thanks.
8.30

----------
Item-by-item account of pIC50
- Tested system: cGAS (Homo sapiens (Human), UniProt Q8N884)
- Assay summary: Human cGAS enzyme assay (hcGAS IC50, in vitro), cGAMP formation by RapidFire MS
- Type: biochemical
- Recorded conditions: biochemical (in vitro) cGAS inhibition
Note on units: pIC50 is unitless, being -log10 of a concentration expressed in mol/L.

Guide cases for pIC50, answers given:
Compound	pIC50
COc1cc(-c2cnc(O[C@H]3C[C@@H](C(=O)O)N(c4nc(C(F)(F)F)nc5c4oc4ccccc45)C3)c(N3CCOC[C@@H]3C)c2)ccn1 [Example 3.05]	7.85
C[C@@H]1N(c2cc(-c3cncc(Cl)c3)cnc2O[C@H]2C[C@@H](C(=O)O)N(c3nc(C(F)(F)F)nc4c3oc3ccccc34)C2)CCOC12COC2 [Example 3.26]	7.96
N#CC1CN(c2cc(Cl)cnc2O[C@H]2C[C@@H](C(=O)O)N(c3nc(C(F)(F)F)nc4c3oc3ccccc34)C2)CCO1 (stereo partly shown) [Example 1.01]	8.10

The record that follows has no pIC50 shown yet.
Consider the compound CSc1cc(-c2cnc(O[C@H]3C[C@@H](C(=O)O)N(c4nc(C(F)F)nc5c4oc4ccccc45)C3)c(N3CCOC4(COC4)[C@@H]3C)c2)ccn1 [Example 3.16] . State its measured pIC50.
7.82

----------
- Tested system: cGAS (Homo sapiens (Human), UniProt Q8N884)
- Assay summary: Human cGAS enzyme assay (hcGAS IC50, in vitro), cGAMP formation by RapidFire MS;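 also: enzyme activated by 45 bp dsDNA with GTP and ATP (30 µM each), 60 min compound pre-incubation then 90 min reaction, cGAMP relative to cyclic-di-GMP internal standard, 8-point dilutions up to 10 µM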
- Assay type: biochemical
- Recorded conditions: biochemical (in vitro) cGAS inhibition
Observed property: IC50 (nM)
Just the number in nM, nothing appended.

Use these answered entries as a reference point.
Chemical smiles	IC50 [nM]
C#Cc1cnc(O[C@H]2C[C@@H](C(=O)O)N(c3nc(C)nc4c3oc3cc(C(F)F)ccc34)C2)c(N2CCOC3(COC3)[C@@H]2C)c1	4
CC(=O)Nc1ccc(-c2cnc(O[C@H]3C[C@@H](C(=O)O)N(c4nc(C(F)(F)F)nc5c4oc4ccccc45)C3)c(N3CCOC4(COC4)[C@@H]3C)c2)cn1	8
COc1cc(-c2cnc(O[C@H]3C[C@@H](C(=O)O)N(c4nc(C(F)(F)F)nc5c4oc4ccccc45)C3)c(N3CCOC4(COC4)[C@@H]3C)c2)c(F)cn1	9

Specify IC50 for `CNc1cncc(-c2cnc(O[C@H]3C[C@@H](C(=O)O)N(c4nc(C(F)(F)F)nc5c4oc4ccccc45)C3)c(N3CCOC4(COC4)[C@@H]3C)c2)c1` and stop.
3

Please give measured IC50 of the following entry: `C#Cc1cnc(O[C@H]2C[C@@H](C(=O)O)N(c3nc(C(F)F)nc4c3oc3ccccc34)C2)c(N2CCCC3(COC3)[C@@H]2C)c1`
4
